Overview of reported Internalization %, MDA-MB-231, 0.5 µg/ml, 4 h across a group of binders:
# tested_target: T1, human Trop-2 expressed on cell surface (human, UniProt P09758 27-323)
# T1 sequence (looked up): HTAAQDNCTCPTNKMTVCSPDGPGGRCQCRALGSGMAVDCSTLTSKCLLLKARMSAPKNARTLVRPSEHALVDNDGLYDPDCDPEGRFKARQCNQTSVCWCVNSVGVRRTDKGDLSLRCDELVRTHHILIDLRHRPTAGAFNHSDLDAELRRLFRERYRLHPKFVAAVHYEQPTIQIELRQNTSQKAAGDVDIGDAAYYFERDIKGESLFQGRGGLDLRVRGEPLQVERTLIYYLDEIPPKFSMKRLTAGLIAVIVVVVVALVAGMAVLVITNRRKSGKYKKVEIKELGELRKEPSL
# test_protocol: cell-based or functional assay
Write the number in % without appending the unit.

1D10 (antibody, V domains shown, Rabbit-derived clone; LEM construct: VH + rabbit IgG CH1 + human IgG1 CH2-CH3) VH: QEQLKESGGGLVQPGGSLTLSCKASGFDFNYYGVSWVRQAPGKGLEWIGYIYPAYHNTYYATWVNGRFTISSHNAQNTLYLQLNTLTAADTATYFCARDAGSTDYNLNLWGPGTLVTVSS VL: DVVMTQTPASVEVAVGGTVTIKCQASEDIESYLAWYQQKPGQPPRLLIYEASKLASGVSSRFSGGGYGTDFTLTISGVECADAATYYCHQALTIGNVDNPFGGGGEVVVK    52

Let us examine a further case.
Problem: Report Internalization %, MDA-MB-231, 0.5 µg/ml, 4 h for 65D5 (antibody, V domains shown, Rabbit-derived clone; LEM construct: VH + rabbit IgG CH1 + human IgG1 CH2-CH3) VH: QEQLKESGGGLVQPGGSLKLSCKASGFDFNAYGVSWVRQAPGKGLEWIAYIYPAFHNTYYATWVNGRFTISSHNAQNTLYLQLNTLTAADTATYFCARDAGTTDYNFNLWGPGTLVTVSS VL: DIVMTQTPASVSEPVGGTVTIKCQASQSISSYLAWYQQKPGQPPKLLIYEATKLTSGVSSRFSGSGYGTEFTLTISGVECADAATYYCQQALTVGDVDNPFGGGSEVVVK please.
Solution: 51
